Numbers sourced from PubChem BioAssay (EPA / NIEHS).

- study_system: Retinoic acid receptor RXR-alpha (Homo sapiens)
- protocol: ATG_RXRa_TRANS: Attagene TRANS-FACTORIAL HepG2 Assay for human Retinoid X Receptor alpha (RXRa) (AID 2283012)
Results filed as inconclusive are left out. Activity calls are given as the source filed them. The calls were made as follows: active = hit-call score of the fitted dose curve at least 0.9, where 1 is the maximum; inconclusive = response in the unintended direction; inactive = score below 0.9.
Just give me one of these, please: y = active, n = inactive

Ask: Assay outcome for CCC[CH2][Sn]([CH2]CCC)([CH2]CCC)[O]C(=O)c1ccccc1 : what was it?
Result: y

Ask: How about this compound: CCOP(=S)(OCC)SCCS(=O)(=O)CC
Result: n

Ask: How about this compound: O=c1[nH]c(=O)[nH]c(=O)[nH]1
Result: n

Ask: How about this compound: O=C(CCl)CCl
Result: n

Ask: How about this compound: COc1ccccc1OC
Result: n

Ask: How about this compound: COP(=S)(OC)Oc1ccc(S(=O)(=O)N(C)C)cc1
Result: n

Ask: How about this compound: ClC(Cl)=C(Cl)C(Cl)=C(Cl)Cl
Result: n

Ask: How about this compound: CCc1ccccc1C
Result: n

Ask: How about this compound: CCOP(=S)(OCC)Oc1nc(Cl)c(Cl)cc1Cl
Result: n

Ask: How about this compound: O=C/C=C/c1ccccc1
Result: n

Ask: How about this compound: ClCc1cccnc1
Result: n

Ask: How about this compound: N#CCc1ccc(Cl)cc1
Result: n

Ask: How about this compound: CCCCCCCCCl
Result: n

Ask: How about this compound: CCOP(=S)(OCC)Oc1ccc(S(C)=O)cc1 (stereo unspecified)
Result: n

Ask: How about this compound: O=C(Cl)c1ccc(Cl)cc1
Result: n

Ask: How about this compound: O=[N+]([O-])c1c(Cl)c(Cl)cc(Cl)c1Cl
Result: n

====

- protocol: ACEA_AR_antagonist_AUC_viability: ACEA Biosciences xCELLigence Real-Time Cell Analysis on Androgen Receptor Antagonism for Viability (AID 2283776);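 also: 22Rv1 human prostate cancer cells growing on impedance electrode plates; area under impedance growth curve at 80 h after dosing as viability; hits lower the growth signal relative to DMSO meaning cytotoxicity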
Records with an inconclusive call do not appear. Active and inactive are the calls of the source. Rule for the calls: active = hit-call score of the fitted dose curve at least 0.9, where 1 is the maximum; inconclusive = response in the unintended direction; inactive = score below 0.9.
Just give me one of these, please: true (1) (active), false (0) (inactive)

Ask: Assay outcome for Clc1ccc(COC(Cn2ccnc2)c2ccc(Cl)cc2Cl)cc1 (configuration not stated) : what was it?
Result: true (1)

Ask: How about this compound: c1cc[c]([Hg][c]2ccccc2)cc1
Result: true (1)

Ask: How about this compound: OCc1ccco1
Result: false (0)

Ask: How about this compound: Oc1ccc(-c2ccccc2)cc1
Result: true (1)

Ask: How about this compound: O=C1C2(Cl)C3(Cl)C4(Cl)C(Cl)(Cl)C5(Cl)C3(Cl)C1(Cl)C5(Cl)C24Cl (configuration not stated)
Result: true (1)

Ask: How about this compound: CCCCCCCCSC(=O)Oc1cc(Cl)nnc1-c1ccccc1
Result: false (0)

Ask: How about this compound: CCCCCCCCc1ccc(O)cc1
Result: true (1)

====

- Read-out: Macrophage colony-stimulating factor (MCSF), CSF1 (gene 1435)
- protocol: BSK_hDFCGF_MCSF: BioMAP Diversity Plus: hDFCGF Assay for Macrophage colony-stimulating factor (MCSF) Biomarker Activity (AID 2283060)
- experimental_context: primary human foreskin fibroblasts; actives raise or lower the signal
Active and inactive are the calls of the source. How the source made its calls: active means hit-call score of the fitted dose curve at least 0.9, where 1 is the maximum; inactive means score below 0.9.
Just give me one of these, please: active, inactive

Ask: Assay outcome for COP(=S)(OC)Oc1c(Cl)cc(C)cc1Cl : what was it?
Result: inactive

Ask: How about this compound: CCOP(=S)(OCC)SCCS(=O)(=O)CC
Result: inactive

Ask: How about this compound: OCc1ccco1
Result: inactive

Ask: How about this compound: CCC(C)(C)c1ccc(O)c(C(C)(C)CC)c1
Result: active

Ask: How about this compound: CCCCCCCCc1ccc(O)cc1
Result: active

Ask: How about this compound: CCNc1nc(NC(C)(C)C)nc(SC)n1
Result: inactive

Ask: How about this compound: CC1(C)Cc2cccc(O)c2O1
Result: inactive

Ask: How about this compound: COP(=S)(OC)Oc1ccc(S(=O)(=O)N(C)C)cc1
Result: inactive

Ask: How about this compound: O=[N+]([O-])c1ccc2c3c(cccc13)CC2
Result: active

Ask: How about this compound: O=S(=O)(c1ccc(Cl)cc1)c1ccc(Cl)cc1
Result: inactive
